Attribution: paper PMC6327980

- study target: VchCAβ (Vibrio cholerae, UniProt Q9KUD6)
- Sequence (Q9KUD6 1-222): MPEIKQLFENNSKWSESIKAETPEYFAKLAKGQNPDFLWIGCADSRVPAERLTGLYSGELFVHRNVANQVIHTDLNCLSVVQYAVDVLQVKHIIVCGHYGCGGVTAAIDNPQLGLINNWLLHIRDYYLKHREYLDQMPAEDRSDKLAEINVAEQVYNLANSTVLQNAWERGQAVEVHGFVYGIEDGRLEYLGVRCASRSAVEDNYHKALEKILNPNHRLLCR
I'd appreciate it if you marked entries satisfied when Ki is lower than 8 µM and not satisfied when it is not.

The examples below pair each entry with its known result.
molecule | cat
Cc1ccc([Se]Cc2cnc(-c3ccc(S(N)(=O)=O)cc3)[se]2)cc1 [10b] | not satisfied
N=C(N)SCc1cnc(-c2ccc(S(N)(=O)=O)cc2)[se]1 [compound 11, 11] | not satisfied
NS(=O)(=O)c1ccc(-c2ncc(C[Se]c3ccccc3)[se]2)cc1 [10a] | not satisfied

Ki under 8 µM? Item: COc1ccc([Te]Cc2cnc(-c3ccc(S(N)(=O)=O)cc3)[se]2)cc1 [9c]
not satisfied

Check if Ki falls below 8 µM for NS(=O)(=O)c1ccc(-c2ncc(C[Te]c3ccccc3)[se]2)cc1 [9a] .
satisfied

Bench note: check whether COc1ccc([Se]Cc2cnc(-c3ccc(S(N)(=O)=O)cc3)[se]2)cc1 [10c] shows Ki below 8 µM
satisfied

Quick check: does Cc1ccc([Te]Cc2cnc(-c3ccc(S(N)(=O)=O)cc3)[se]2)cc1 [9b] have Ki under 8 µM?
satisfied
